The reported measurements were obtained from patent US20220332700A1.

Molecular target: recombinant ASK1 (Homo sapiens, UniProt Q99683)
Construct: purchased Carna Biosciences
Sequence (Q99683 654-971 limits assumed): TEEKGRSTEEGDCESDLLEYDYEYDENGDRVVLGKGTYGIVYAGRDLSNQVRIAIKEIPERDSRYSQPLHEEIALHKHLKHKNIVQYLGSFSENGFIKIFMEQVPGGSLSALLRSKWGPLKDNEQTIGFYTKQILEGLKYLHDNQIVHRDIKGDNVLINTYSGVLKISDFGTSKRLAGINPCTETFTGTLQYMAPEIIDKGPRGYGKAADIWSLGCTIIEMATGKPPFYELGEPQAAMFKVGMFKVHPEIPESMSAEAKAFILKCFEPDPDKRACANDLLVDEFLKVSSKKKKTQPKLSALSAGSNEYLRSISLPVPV
Test: ASK1 Biochemical Assay (HTRF KinEASE-STK S3)
Conditions: ATP 100 μM; read-out: Biochemical Assay IC50
reportedProperty: IC50

CC(C)n1cnnc1-c1cccc(N2CCN(c3ccc(N4CC(NC5CC5)C4)cc3)C2=O)n1 : < 100 nM
CC(C)n1cnnc1-c1cccc(N2CCN(c3ccc(N4CCOCC4)c(F)c3)C2=O)n1 : < 100 nM
CC(C)n1cnnc1-c1cccc(N2CCN(c3ccc4c(ccn4C)c3)C2=O)n1 : < 100 nM
CC(C)n1cnnc1-c1cccc(N2CCN(c3ccc(C4CCOCC4)cc3)C2=O)n1 : < 100 nM
CC(C)n1cnnc1-c1cccc(N2CCN(c3ccc(N(C)C)nc3)C2=O)n1 : < 100 nM
CC(C)n1cnnc1-c1cccc(N2CCN(c3ccc(OCCS(C)(=O)=O)cc3)C2=O)n1 : < 100 nM
CC(C)n1cnnc1-c1cccc(N2CCN(c3ccc(N4CCOCC4)cc3)C2=O)n1 : < 100 nM
CC(C)n1cnnc1-c1cccc(N2CCN(c3ccc(N4[C@H](C)COC[C@@H]4C)cc3)C2=O)n1 : < 100 nM

# IC50 measured on recombinant ASK1 (Homo sapiens, UniProt Q99683) for item "CC(C)n1cnnc1-c1cccc(N2CCN(c3cccc(-c4ccc(C(N)=O)cc4)c3)C2=O)n1" = > 1000 nM

# IC50 measured on recombinant ASK1 (Homo sapiens, UniProt Q99683) for item "CC(C)n1cnnc1-c1cccc(N2CCN(c3cccc(-n4ccnc4)c3F)C2=O)n1" = > 1000 nM

# IC50 measured on recombinant ASK1 (Homo sapiens, UniProt Q99683) for item "CC(C)n1cnnc1-c1cccc(N2CCN(c3ccc(CN4CCOCC4)cc3)C2=O)n1" = < 100 nM

# IC50 measured on recombinant ASK1 (Homo sapiens, UniProt Q99683) for item CC(C)n1cnnc1-c1cccc(N2CCN(c3ccc(S(C)(=O)=O)cc3)C2=O)n1 [Example 1013] = < 100 nM

# IC50 measured on recombinant ASK1 (Homo sapiens, UniProt Q99683) for item CC(C)n1cnnc1-c1cccc(N2CCN(c3ccc4nc(NC5CC5)sc4c3)C2=O)n1 [Example 1046, 2,2,2-trifluoroacetate] = > 100 nM

# IC50 measured on recombinant ASK1 (Homo sapiens, UniProt Q99683) for item "CC(C)n1cnnc1-c1cccc(N2CCN(c3ccc(N4CCC(S(C)(=O)=O)CC4)nc3)C2=O)n1" = < 100 nM

# IC50 measured on recombinant ASK1 (Homo sapiens, UniProt Q99683) for item "CC(C)n1cnnc1-c1cccc(N2CCN(c3cc(-n4ccnc4)ccn3)C2=O)n1" = > 1000 nM

# IC50 measured on recombinant ASK1 (Homo sapiens, UniProt Q99683) for item "CC(C)n1cnnc1-c1cccc(N2CCN(c3cccc(-c4ccc(C(F)(F)F)cc4)c3)C2=O)n1" = > 1000 nM

* * *

Target: recombinant ASK1 (Homo sapiens)
Construct: purchased Carna Biosciences
Test: ASK1 Biochemical Assay (HTRF KinEASE-STK S3)
Details: ATP 100 μM; read-out: Biochemical Assay IC50
reportedProperty: IC50

CC(C)n1cnnc1-c1cccc(N2CCN(c3ccc(C(=O)N4CCOCC4)cc3)C2=O)n1 : < 100 nM
CC(C)n1cnnc1-c1cccc(N2CCN(c3ccc(N4CC5(COC5)C4)cc3)C2=O)n1 : < 100 nM
CC(C)n1cnnc1-c1cccc(N2CCN(Cc3ccc(N4CCOCC4)cc3)C2=O)n1 : < 100 nM
CC(C)n1cnnc1-c1cccc(N2CCN(c3cccc(-c4ccc(S(C)(=O)=O)nc4)c3)C2=O)n1 : 25 nM
CC(C)n1cnnc1-c1cccc(N2CCN(c3ccc(N4CCC(N(C)C)CC4)nc3)C2=O)n1 : < 100 nM
CNC(=O)C1CCN(c2ccc(N3CCN(c4cccc(-c5nncn5C(C)C)n4)C3=O)cc2)CC1 : < 50 nM

# IC50 measured on recombinant ASK1 (Homo sapiens) for item "Cc1cc(S(C)(=O)=O)ccc1N1CCN(c2cccc(-c3nncn3C(C)C)n2)C1=O" = > 100 nM

# IC50 measured on recombinant ASK1 (Homo sapiens) for item CNC(=O)C1CCN(C(C)c2ccc(N3CCN(c4cccc(-c5nncn5C(C)C)n4)C3=O)cc2)CC1 (stereo not shown) = < 100 nM

# IC50 measured on recombinant ASK1 (Homo sapiens) for item "CC(C)n1cnnc1-c1cccc(N2CCN(c3ccc(S(C)(=O)=O)nc3)C2=O)n1" = < 100 nM

# IC50 measured on recombinant ASK1 (Homo sapiens) for item "CC(C)n1cnnc1-c1cccc(N2CCN(c3ccc(S(=O)(=O)C4CC4)cc3)C2=O)n1" = < 100 nM

# IC50 measured on recombinant ASK1 (Homo sapiens) for item "CC(C)n1cnnc1-c1cccc(N2CCN(c3cc(-n4ccnc4)ncn3)C2=O)n1" = 1300 nM

# IC50 measured on recombinant ASK1 (Homo sapiens) for item CC(c1ccc(N2CCOCC2)cc1)N1CCN(c2cccc(-c3nncn3C(C)C)n2)C1=O (stereo not shown) = < 100 nM

# IC50 measured on recombinant ASK1 (Homo sapiens) for item "CC(C)n1cnnc1-c1cccc(N2CCN(c3ccc(N4CCC(F)CC4)cc3)C2=O)n1" = < 100 nM

# IC50 measured on recombinant ASK1 (Homo sapiens) for item CC(CO)n1cnnc1-c1cccc(N2CCN(c3ccc(S(C)(=O)=O)cc3)C2=O)n1 (stereo not shown) = < 100 nM

# IC50 measured on recombinant ASK1 (Homo sapiens) for item "CC(C)n1cnnc1-c1cccc(N2CCN(c3cccc(-c4cnn(S(C)(=O)=O)c4)c3)C2=O)n1" = > 100 nM

# IC50 measured on recombinant ASK1 (Homo sapiens) for item CC1CN(c2ccc(N3CCN(c4cccc(-c5nncn5C(C)C)n4)C3=O)cc2)C(=O)CO1 (stereo not shown) = < 100 nM

# IC50 measured on recombinant ASK1 (Homo sapiens) for item "CNC(=O)C1CN(c2ccc(N3CCN(c4cccc(-c5nncn5C(C)C)n4)C3=O)cn2)C1" = < 100 nM

# IC50 measured on recombinant ASK1 (Homo sapiens) for item "CC(C)n1cnnc1-c1cccc(N2CCN(c3cnc(N4CCOCC4)nc3)C2=O)n1" = < 100 nM

# IC50 measured on recombinant ASK1 (Homo sapiens) for item "CNC(=O)N1CCN(c2ccc(N3CCN(c4cccc(-c5nncn5C(C)C)n4)C3=O)cc2)CC1" = < 100 nM

# IC50 measured on recombinant ASK1 (Homo sapiens) for item "CNC(=O)[C@H]1CCN(c2ccc(N3CCN(c4cccc(-c5nncn5C(C)C)n4)C3=O)cc2)C1" = < 100 nM

# IC50 measured on recombinant ASK1 (Homo sapiens) for item "CC(C)n1cnnc1-c1cccc(N2CCN(c3ccc(N4[C@H](C)COC[C@H]4C)cc3)C2=O)n1" = < 100 nM

# IC50 measured on recombinant ASK1 (Homo sapiens) for item "CC(C)n1cnnc1-c1cccc(N2CCN(c3ccc(N4CCC(C#N)CC4)cc3)C2=O)n1" = < 100 nM

# IC50 measured on recombinant ASK1 (Homo sapiens) for item "CC(C)n1cnnc1-c1cccc(N2CCN(c3ccc(N4CCOCC4)nc3)C2=O)n1" = < 50 nM

# IC50 measured on recombinant ASK1 (Homo sapiens) for item "Cc1cc(N2CCN(c3cccc(-c4nncn4C(C)C)n3)C2=O)ccc1N1CCOCC1" = < 100 nM

# IC50 measured on recombinant ASK1 (Homo sapiens) for item "CC(C)n1cnnc1-c1cccc(N2CCN(c3ccc(-n4cnc(C5CC5)c4)cc3)C2=O)n1" = < 100 nM

# IC50 measured on recombinant ASK1 (Homo sapiens) for item CC(C)n1cnnc1-c1cccc(N2CCN(c3ccc(N4CCC(C#N)C4)cc3)C2=O)n1 (stereo not shown) = < 100 nM

# IC50 measured on recombinant ASK1 (Homo sapiens) for item "CC(C)n1cnnc1-c1cccc(N2CCN(c3ccc(NC4CCOCC4)cc3)C2=O)n1" = < 50 nM

# IC50 measured on recombinant ASK1 (Homo sapiens) for item CC1COCCN1c1ccc(N2CCN(c3cccc(-c4nncn4C(C)C)n3)C2=O)cc1 (stereo not shown) = < 100 nM

# IC50 measured on recombinant ASK1 (Homo sapiens) for item "CC(C)n1cnnc1-c1cccc(N2CCN(c3ccc(N4CCN(C)CC4)cc3)C2=O)n1" = < 100 nM

# IC50 measured on recombinant ASK1 (Homo sapiens) for item CC(C)n1cnnc1-c1cccc(N2CCN(c3ccc(C(C#N)N4CCOCC4)cc3)C2=O)n1 (stereo not shown) = < 100 nM

# IC50 measured on recombinant ASK1 (Homo sapiens) for item "CNC1(C2CCN(c3ccc(N4CCN(c5cccc(-c6nncn6C(C)C)n5)C4=O)cc3)CC2)COC1" = < 100 nM

* * *

The molecules listed here are annotated with their pIC50.
Biological target: Human ASK1 (Homo sapiens)
Construct: expressed in transfected cells; host or cells: HEK293T-AP1
Sequence (Q99683 whole entry): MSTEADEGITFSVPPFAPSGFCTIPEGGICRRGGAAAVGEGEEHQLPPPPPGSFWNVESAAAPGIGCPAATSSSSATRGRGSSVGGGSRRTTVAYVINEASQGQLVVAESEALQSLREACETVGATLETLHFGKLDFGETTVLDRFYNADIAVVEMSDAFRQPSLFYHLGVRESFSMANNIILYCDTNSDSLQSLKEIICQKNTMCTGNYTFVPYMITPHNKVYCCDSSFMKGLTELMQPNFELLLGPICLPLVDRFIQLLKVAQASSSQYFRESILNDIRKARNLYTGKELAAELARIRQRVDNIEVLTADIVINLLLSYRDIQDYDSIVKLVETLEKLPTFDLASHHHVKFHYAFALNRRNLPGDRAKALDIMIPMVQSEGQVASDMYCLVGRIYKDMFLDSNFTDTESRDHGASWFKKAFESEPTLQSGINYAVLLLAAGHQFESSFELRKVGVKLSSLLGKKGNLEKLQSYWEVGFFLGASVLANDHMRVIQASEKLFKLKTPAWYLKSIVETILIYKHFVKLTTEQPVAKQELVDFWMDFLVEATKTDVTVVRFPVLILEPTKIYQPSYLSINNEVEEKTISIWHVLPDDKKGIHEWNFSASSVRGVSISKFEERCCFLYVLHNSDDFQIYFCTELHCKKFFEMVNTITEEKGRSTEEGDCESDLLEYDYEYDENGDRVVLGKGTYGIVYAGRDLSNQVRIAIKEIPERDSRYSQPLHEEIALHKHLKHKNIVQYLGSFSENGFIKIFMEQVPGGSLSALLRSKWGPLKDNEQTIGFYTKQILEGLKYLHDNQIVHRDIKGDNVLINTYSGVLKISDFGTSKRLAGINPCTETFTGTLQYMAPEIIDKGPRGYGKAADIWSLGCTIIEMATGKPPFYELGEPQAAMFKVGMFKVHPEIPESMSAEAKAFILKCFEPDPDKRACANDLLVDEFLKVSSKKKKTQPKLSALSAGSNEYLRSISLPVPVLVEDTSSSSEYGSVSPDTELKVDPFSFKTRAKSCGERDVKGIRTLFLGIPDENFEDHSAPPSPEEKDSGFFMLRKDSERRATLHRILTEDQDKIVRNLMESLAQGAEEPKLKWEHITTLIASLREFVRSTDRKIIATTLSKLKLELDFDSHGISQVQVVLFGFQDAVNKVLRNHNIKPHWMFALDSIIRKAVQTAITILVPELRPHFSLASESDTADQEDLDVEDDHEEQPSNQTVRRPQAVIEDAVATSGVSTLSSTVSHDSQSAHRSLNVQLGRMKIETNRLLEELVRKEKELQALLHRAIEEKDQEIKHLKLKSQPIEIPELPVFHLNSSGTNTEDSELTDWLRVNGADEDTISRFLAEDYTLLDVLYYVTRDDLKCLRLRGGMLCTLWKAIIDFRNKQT
Test: ASK1 Cell Based Assay (phospho p38 read out in hASK1 transfected HEK293T-AP1 cells)
Conditions: HEK293T-AP1 cells, 1 mM hydrogen peroxide, phospho p38; read-out: Cell Based Assay IC50
Description: HEK293T-AP1 cells were seeded at a density of 20,000 cells per well in a poly-d-lysine coated 96 well microplate. Next day, cells were transfected with hASK1-pcDNA3.1 vector using lipofectamine 3000. […] Phospho p38 levels in the lysate was detected by using CisbioPhospho-p38 MAPK (Thr180/Tyr182) #64P38PEG.Four microliters of phospho p38 antibodies labelled with europium cryptate and d2 acceptor, were added to the lysate and incubated overnight. […]
pIC50: −log10 of the molar value.

# pIC50 (molecule: CC(n1cnnc1-c1cccc(N2CCN(c3ccc(S(C)(=O)=O)cc3)C2=O)n1)C(F)(F)F (stereo not shown) ) is < 6.00

# pIC50 (molecule: CC(c1ccc(N2CCN(c3cccc(-c4nncn4C(C)C)n3)C2=O)cc1)N1CCOCC1 (stereo not shown) ) is < 6.00

# pIC50 (molecule: "CC(C)n1cnnc1-c1cccc(N2CCN(c3ccc(N4CCOCC4)nc3)C2=O)n1" ) is 6.72

# pIC50 (molecule: "CNS(=O)(=O)c1ccc(N2CCN(c3cccc(-c4nncn4C(C)C)n3)C2=O)cc1" ) is > 6.00

# pIC50 (molecule: "COc1ccc(-c2ccc(S(C)(=O)=O)nc2)cc1N1CCN(c2cccc(-c3nncn3C(C)C)n2)C1=O" ) is < 5.00

# pIC50 (molecule: "CC(C)n1cnnc1-c1cccc(N2CCN(c3cccc(-c4ccc(S(C)(=O)=O)nc4)c3)C2=O)n1" ) is < 6.00

# pIC50 (molecule: "CC(C)n1cnnc1-c1cccc(N2CCN(c3cccc(-n4ccnc4)c3)C2=O)n1" ) is < 6.00

# pIC50 (molecule: "Cc1cc(N2CCN(c3cccc(-c4nncn4C(C)C)n3)C2=O)ccc1S(C)(=O)=O" ) is < 6.00

# pIC50 (molecule: "COc1ccc(N2CCN(c3cccc(-c4nncn4C(C)C)n3)C2=O)cc1" ) is < 6.00

# pIC50 (molecule: CC1CN(c2ccc(N3CCN(c4cccc(-c5nncn5C(C)C)n4)C3=O)cc2)CCO1 (stereo not shown) ) is < 7.00

# pIC50 (molecule: "CC(C)n1cnnc1-c1cccc(N2CCN(c3ccc(S(C)(=O)=O)nc3)C2=O)n1" ) is < 6.00
